protocol.details: In vitro cytotoxicity, HEK293 (Alamar Blue)
Assay type: cell-based
test.parameters: human, HEK293 cells; read-out: CC50 (50% cell toxicity)
reported.metric: CC50 at 24 h (µM)

compound	recorded.value
NC(Cc1ccccc1)C(O)CN1CCN(Cc2ccc(C(F)(F)F)cc2)CC1 (stereo not shown)	60.2

---

Tested on: P. falciparum CQ-resistant (PfDd2)
protocol.details: SYBR Green I assay, asynchronous cultures, CQ-resistant clone
Assay type: cell-based
test.parameters: Plasmodium falciparum, 72 h, read-out: PfDd2 IC50, nM (±SD)
IC50: recorded values
reported.metric: IC50 (nM)

compound	recorded.value
CCN(CC)CCCC(C)Nc1ccnc2cc(Cl)ccc12 (centres unmarked) [Chloroquine, reference compound]	137
NC(Cc1ccccc1)C(O)CN1CCN(Cc2ccc(C(F)(F)F)cc2)CC1 (centres unmarked)	88
